The values you see were collected from BigSolDB 2.1.

conditions: in water, 323.15 K
Measured Endpoint: solubility (mole fraction)

Worked cases, answers included:
O=C(O)CCCC(=O)O = 0.327
O=C(O)c1ccco1 = 0.0513

P: O=C(O)CCCCCC(=O)O
Q: O=C(O)c1ccccc1O
Of P and Q , whose reported solubility (mole fraction) is the larger number? // output: label of the selected item P

###

settings: in water, 333.2 K
Measured Endpoint: solubility (mole fraction)
Write the number on its own, no unit after it.

Reported solubility (mole fraction) for "O=C(O)c1ccco1" : what is it? 0.144

###

conditions: in water, 327.65 K
Measured Endpoint: solubility (mole fraction)

A: O=C(O)CCCC(=O)O
B: O=C(O)c1ccco1
Of A and B , whose reported solubility (mole fraction) is the larger number? // output: label of the selected item A
